Below: a set of entries, each annotated with reported drug sensitivity score.
test system: KURAMOCHI; assay: drug sensitivity score (DSS2) on cancer cell count; higher = more sensitive; extreme values may be limits of the assay; details: co-cultured fibroblast: BJHTERT; 72 h
Form entry: value (DSS) — number only.

The reported drug sensitivity score of the molecule COc1cc2c(Oc3ccc(NC(=O)C4(C(=O)Nc5ccc(F)cc5)CC4)cc3F)ccnc2cc1OCCCN1CCOCC1 was 2.7

---

Below: a set of entries, each annotated with reported drug sensitivity score.
system: KURAMOCHI; assay: drug sensitivity score (DSS2) on cancer cell count; higher = more sensitive; extreme values may be limits of the assay; details: co-cultured fibroblast: BJHTERT; 72 h
Write the quantity with the unit trailing the number.

Here is how some molecules turned out for drug sensitivity score.
The reported drug sensitivity score of the molecule CCn1c(-c2nonc2N)nc2cnc(Oc3cccc(NC(=O)c4ccc(OCCN5CCOCC5)cc4)c3)cc21 was 4.2 DSS

The reported drug sensitivity score of the molecule CN1CCC(CNc2ccc3ncc(-c4cccc(OC(F)(F)F)c4)n3n2)CC1 was 7.9 DSS

The reported drug sensitivity score of the molecule CC(C)c1cc(-c2n[nH]c(=O)n2-c2ccc3c(ccn3C)c2)c(O)cc1O was 14.8 DSS

The reported drug sensitivity score of the molecule CCC1(c2ccc(N)cc2)CCC(=O)NC1=O (stereo not drawn) [Aminoglutethimide] was 5.8 DSS

The reported drug sensitivity score of the molecule C[C@@]1(C(=O)Nc2ccc(F)nc2)CCCN1c1nc(Nc2cc(C3CC3)n[nH]2)c2cccn2n1 was 13.3 DSS

New cases:
The reported drug sensitivity score of the molecule CCN1C(=O)CNc2ncc(-c3ccc(-c4nc[nH]n4)nc3C)nc21 was 6.9 DSS

The reported drug sensitivity score of the molecule COc1cc2c(NC3CCN(C(C)C)CC3)nc(C3CCCCC3)nc2cc1OCCCN1CCCC1 was 4.4 DSS

The reported drug sensitivity score of the molecule CN1C(=O)N[C@H](Cc2c[nH]c3c(Cl)cccc23)C1=O was 0 DSS

The reported drug sensitivity score of the molecule NC(=O)c1cccc(-c2cccc(OC(=O)NC3CCCCC3)c2)c1 was 0 DSS

The reported drug sensitivity score of the molecule CNC(=O)c1ccccc1Nc1nc(Nc2ccc3c(c2OC)CCC[C@H](N2CCN(CCO)CC2)C3)ncc1Cl was 6.7 DSS

The reported drug sensitivity score of the molecule Cc1ncc(Cl)cc1NCc1ccc(C(=O)N[C@@H](CC2CCCC2)C(=O)NC2CC2)s1 was 0 DSS

The reported drug sensitivity score of the molecule C[C@@H]1COCCN1c1cc(C2([S@](C)(=N)=O)CC2)nc(-c2cc[nH]c3nccc2-3)n1 was 10.4 DSS

The reported drug sensitivity score of the molecule COc1ccc(CCc2nc3cc(-c4c(C)noc4C)ccc3n2C[C@H](C)N2CCOCC2)cc1Cl was 5.7 DSS

The reported drug sensitivity score of the molecule COc1nc(N)nc2c1ncn2[C@@H]1O[C@H](CO)[C@@H](O)[C@@H]1O was 0 DSS

The reported drug sensitivity score of the molecule Nc1ncnc2c1c(COc1cccc(Cl)c1)nn2C1CCOCC1 was 0 DSS

The reported drug sensitivity score of the molecule CCS(=O)(=O)N1CC(CC#N)(n2cc(-c3ncnc4[nH]ccc34)cn2)C1 was 0 DSS

The reported drug sensitivity score of the molecule C[C@@H](C(=O)O)c1ccc(-c2ccccc2)c(F)c1 was 0 DSS

The reported drug sensitivity score of the molecule CN(c1ncccc1CNc1nc(Nc2ccc3c(c2)CC(=O)N3)ncc1C(F)(F)F)S(C)(=O)=O was 11.5 DSS

src = the supplement of paper PMC12420376
